Reported protein stability index values are given for each entry in this list.
B1: ZNF449 (parent)
chain: YRHQRLHTGERPYECTVCKKRFTR

# Variants of: B1
# assay.comment: protein stability index of a GFP-peptide fusion (GPS, HEK-293T) (PSI 1-6); higher = more stable;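 further: lentivirally expressed fusions sorted by FACS into six bins by GFP to DsRed ratio, PSI derived from sequencing read proportions per bin multiplied by bin number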
# condition.info: c terminus: a fixed tail appended
Just the number, please, no unit after it.

mutation.notation: R2K
recorded.value: 2.32
--
mutation.notation: E10A
recorded.value: 2.38

Qu. Dear colleague, I am looking for the recorded protein stability index of the following variant: `K20F`
Ans. 2.15

Qu. Dear colleague, I am looking for the recorded protein stability index of the following variant: `Y1E`
Ans. 3.16

Qu. Dear colleague, I am looking for the recorded protein stability index of the following variant: `C18R`
Ans. 3.65

Qu. Dear colleague, I am looking for the recorded protein stability index of the following variant: `P12M`
Ans. 2.32

Qu. Dear colleague, I am looking for the recorded protein stability index of the following variant: `C15I`
Ans. 2.55

Qu. Dear colleague, I am looking for the recorded protein stability index of the following variant: `G9E`
Ans. 2.31

Qu. Dear colleague, I am looking for the recorded protein stability index of the following variant: `H7K`
Ans. 2.75

Qu. Dear colleague, I am looking for the recorded protein stability index of the following variant: `R21F`
Ans. 2.1

Qu. Dear colleague, I am looking for the recorded protein stability index of the following variant: `V17A`
Ans. 2.48
